Experiment: solubility in fasted state simulated intestinal fluid (FASSIF)
Assay type: physicochemical
Conditions: pH 6.1, fassif, thermodynamic from solid, pH of 6.1 at 4 hours
Procedure: In comparison, amorphous spray-dried dispersions have a solubility of about 0.05 mg/mL to about 0.50 mg/mL in FASSIF at 3 hours.
experimental endpoint: solubility at 4 h

Incoming: Name the reported solubility at 4 h value associated with the molecule N#Cc1ccnc(N2C(=O)CC[C@H]2C(=O)N(c2cncc(F)c2)[C@H](C(=O)NC2CC(F)(F)C2)c2ccccc2Cl)c1 [Form 2]
Outgoing: ~18 µg/mL
